- System: T-47D
- experimentalProtocol: relative IC50 (midpoint of fitted logistic curve, plateau may be below 50% inhibition; CellTiter-Glo viability); higher = less potent
- conditionDescription: 4-OH-tamoxifen in medium 0 µM; 72 h
metricName: relative IC50

Examples with answers:
- molecule: "CC(C)(C)c1cnc(CSc2cnc(NC(=O)C3CCNCC3)s2)o1"
  relative IC50: "0.451 µM"
- molecule: "CCCCC/C=C/C=C1/C(=O)C=C[C@@H]1C/C=C\\CCCC(=O)O [15D-PGJ2]"
  relative IC50: "> 0.8 µM"
- molecule: "O=C(CCCCCCC(=O)Nc1ccccc1)NO"
  relative IC50: "2.63 µM"
- molecule: "O=P1(N(CCCl)CCCl)NCCCO1 (centres undefined) [Clafen (Cyclophosphamide, Endoxan)]"
  relative IC50: "> 40 µM"
- molecule: "CC(O)(CS(=O)(=O)c1ccc(F)cc1)C(=O)Nc1ccc(C#N)c(C(F)(F)F)c1 (centres undefined) [Bicalutamide]"
  relative IC50: "> 10 µM"
- molecule: "COc1ccc(C2=N[C@@H](c3ccc(Cl)cc3)[C@@H](c3ccc(Cl)cc3)N2C(=O)N2CCNC(=O)C2)c(OC(C)C)c1"
  relative IC50: "> 10 µM"
- molecule: "CCCC(CCC)C(=O)O"
  relative IC50: "> 10 µM"
- molecule: "S=c1[nH]cnc2nc[nH]c12"
  relative IC50: "> 10 µM"

Now let's try a different one.
Return relative IC50 for the following molecule: `C=C1C[C@@H]2[C@H](CC[C@]3(C)C(=O)CC[C@@H]23)[C@@]2(C)C=CC(=O)C=C12`
> 10 µM

###

Measured relative IC50 accompanies every entry in the list below.
- System: MCF-7
- experimentalProtocol: relative IC50 (midpoint of fitted logistic curve, plateau may be below 50% inhibition; CellTiter-Glo viability); higher = less potent
- conditionDescription: 4-OH-tamoxifen in medium 1 µM; 72 h

Examples with answers:
- molecule: "Cc1c(CN2CCN(C(=O)[C@H](C)O)CC2)sc2c(N3CCOCC3)nc(-c3cnc(N)nc3)nc12"
  relative IC50: "146 nM"
- molecule: "COc1cc2c(N3CCN(C(=O)Nc4ccc(OC(C)C)cc4)CC3)ncnc2cc1OCCCN1CCCCC1"
  relative IC50: "> 1000 nM"
- molecule: "CC/C(=C(\\c1ccc(O)cc1)c1ccc(OCCN(C)C)cc1)c1ccccc1 [4-hydroxytamoxifen]"
  relative IC50: "3340 nM"

Return relative IC50 for the following molecule: `NCCCNCCSP(=O)(O)O`
> 10000 nM

###

- Test system: T-47D
- experimentalProtocol: drug sensitivity score (DSS) (DSS (dimensionless)); higher = more sensitive; extreme values may be limits of the assay
- conditionDescription: 4-OH-tamoxifen in medium 1 µM; 72 h
metricName: drug sensitivity score
Please reply with the number alone, leaving off any unit.

- compound: "Nc1ccccc1NC(=O)c1ccc(CNC(=O)OCc2cccnc2)cc1"
  val: 1.33
- compound: "COc1cc(F)c(F)c(Nc2ccc(I)cc2F)c1NS(=O)(=O)C1(C[C@H](O)CO)CC1 [Refametinib (RDEA119)]"
  val: 0.324
- compound: "CC(C)(C)c1cnc(CSc2cnc(NC(=O)C3CCNCC3)s2)o1"
  val: 1.24
- compound: "CCN(CC)CCNC(=O)c1c(C)[nH]c(/C=C2\\C(=O)Nc3ccc(F)cc32)c1C"
  val: 0.383
- compound: "Nc1ccn([C@@H]2O[C@H](CO)[C@@H](O)C2(F)F)c(=O)n1"
  val: 0
- compound: "C=C(c1ccc(C(=O)O)cc1)c1cc2c(cc1C)C(C)(C)CCC2(C)C"
  val: 0.469
- compound: "NCC(=O)CCC(=O)O"
  val: 0
- compound: "CC1(C)CNc2cc(NC(=O)c3cccnc3NCc3ccncc3)ccc21"
  val: 0

Return drug sensitivity score for the following compound: `COc1cccc2c1C(=O)c1c(O)c3c(c(O)c1C2=O)C[C@@](O)(C(=O)CO)C[C@@H]3O[C@H]1C[C@H](N)[C@H](O)[C@H](C)O1`
3.36

###

- System: T-47D Tam2
- experimentalProtocol: viability inhibition at highest dose (% inhibition); higher = more growth inhibition
- conditionDescription: 4-OH-tamoxifen in medium 1 µM; 72 h
metricName: viability inhibition at highest dose
Please reply with the number alone, leaving off any unit.

Examples with answers:
- molecule: "CO[C@H]1/C=C\\C=C(/C)C(=O)NC2=CC(=O)C(NCCN(C)C)=C(C[C@@H](C)C[C@H](OC)[C@H](O)[C@@H](C)/C=C(\\C)[C@@H]1OC(N)=O)C2=O [Alvespimycin (17-DMAG)] (drug 1000 nM)"
  viability inhibition at highest dose: 49.2
- molecule: "Nc1nc2[nH]cc(CCc3ccc(C(=O)N[C@@H](CCC(=O)O)C(=O)O)cc3)c2c(=O)[nH]1 [Pemetrexed] (drug 10000 nM)"
  viability inhibition at highest dose: 9.3

Return viability inhibition at highest dose for the following molecule: CCNC(=O)c1noc(-c2cc(C(C)C)c(O)cc2O)c1-c1ccc(CN2CCOCC2)cc1 [NVP-AUY922] (drug 1000 nM)
55

Return viability inhibition at highest dose for the following molecule: O=C(O)CC[C@H]1CC[C@@](c2cc(F)ccc2F)(S(=O)(=O)c2ccc(Cl)cc2)CC1 [MK-0752] (drug 1000 nM)
4.08

###

- System: T-47D
- experimentalProtocol: viability inhibition at highest dose (% inhibition); higher = more growth inhibition
- conditionDescription: 4-OH-tamoxifen in medium 0 µM; 72 h
Structures can show the parent of a compound that is named as a salt.
Measured viability inhibition at highest dose accompanies every entry in the list below.
Please reply with the number alone, leaving off any unit.

Examples with answers:
- compound: "CCCCC(=O)OCC(=O)[C@]1(O)Cc2c(O)c3c(c(O)c2[C@@H](O[C@H]2C[C@H](NC(=O)C(F)(F)F)[C@H](O)[C@H](C)O2)C1)C(=O)c1c(OC)cccc1C3=O [Valrubicin] (drug 10000 nM)"
  viability inhibition at highest dose: 58.2
- compound: "CS(=O)(=O)c1ccc(C(=O)Nc2ccc(Cl)c(-c3ccccn3)c2)c(Cl)c1 [Vismodegib] (drug 10000 nM)"
  viability inhibition at highest dose: 3.38
- compound: "CC(=O)[C@]1(O)Cc2c(O)c3c(c(O)c2[C@@H](O[C@H]2C[C@H](N)[C@H](O)[C@H](C)O2)C1)C(=O)c1ccccc1C3=O [Idarubicin] (drug 1000 nM)"
  viability inhibition at highest dose: 68.9
- compound: "N#CC[C@H](C1CCCC1)n1cc(-c2ncnc3[nH]ccc23)cn1 (drug 10000 nM)"
  viability inhibition at highest dose: -12.9
- compound: "CCOc1cc2ncc(C#N)c(Nc3ccc(OCc4ccccn4)c(Cl)c3)c2cc1NC(=O)/C=C/CN(C)C [Neratinib] (drug 1000 nM)"
  viability inhibition at highest dose: 19
- compound: "CCNC(=O)c1noc(-c2cc(C(C)C)c(O)cc2O)c1-c1ccc(CN2CCOCC2)cc1 [NVP-AUY922] (drug 1000 nM)"
  viability inhibition at highest dose: 68.8
- compound: "Cc1ccc(F)c(NC(=O)Nc2ccc(-c3cccc4[nH]nc(N)c34)cc2)c1 [Linifanib (ABT-869)] (drug 1000 nM)"
  viability inhibition at highest dose: -7.82
- compound: "CC1=C2C[C@H]3[C@@H](CC=C4C[C@@H](O)CC[C@@]43C)[C@@H]2CC[C@]12O[C@@H]1C[C@H](C)CN[C@H]1[C@H]2C [Cyclopamine] (drug 10000 nM)"
  viability inhibition at highest dose: -17.5

Return viability inhibition at highest dose for the following compound: CCC1(c2ccc(N)cc2)CCC(=O)NC1=O (configuration not stated) [Aminoglutethimide] (drug 10000 nM)
-3.76

Return viability inhibition at highest dose for the following compound: CCC1=C[C@@H]2CN(C1)Cc1c([nH]c3ccccc13)[C@@](C(=O)OC)(c1cc3c(cc1OC)N(C)[C@H]1[C@@](O)(C(=O)OC)[C@H](OC(C)=O)[C@]4(CC)C=CCN5CC[C@]31[C@@H]54)C2 [Vinorelbine (tartrate)] (drug 10000 nM)
6.97

Return viability inhibition at highest dose for the following compound: CC(C)c1c(C(=O)Nc2ccccc2)c(-c2ccccc2)c(-c2ccc(F)cc2)n1CC[C@@H](O)C[C@@H](O)CC(=O)O [Atorvastatin] (drug 10000 nM)
35.6

Return viability inhibition at highest dose for the following compound: Cn1c(CCCC(=O)O)nc2cc(N(CCCl)CCCl)ccc21 [Bendamustine (hydrochloride hydrate)] (drug 10000 nM)
-0.126

###

- Tested on: T-47D Tam1
- experimentalProtocol: viability inhibition at highest dose (% inhibition); higher = more growth inhibition
- conditionDescription: 4-OH-tamoxifen in medium 1 µM; 72 h
metricName: viability inhibition at highest dose
Please reply with the number alone, leaving off any unit.

- compound: "CN[C@@H]1C[C@H]2O[C@@](C)([C@@H]1OC)n1c3ccccc3c3c4c(c5c6ccccc6n2c5c31)C(=O)N[C@H]4O [UCN-01] (drug 10000 nM)"
  assayTarget: "T-47D Tam1"
  viability inhibition at highest dose: 78

Return viability inhibition at highest dose for the following compound: S=c1[nH]cnc2nc[nH]c12 [Mercaptopurine] (drug 10000 nM)
11.9

Return viability inhibition at highest dose for the following compound: Cc1ccc(Nc2nccc(N(C)c3ccc4c(C)n(C)nc4c3)n2)cc1S(N)(=O)=O [Pazopanib] (drug 10000 nM)
4.97

Return viability inhibition at highest dose for the following compound: CCS(=O)(=O)c1cccc(-c2cc(C(=O)NC3CCN(C)CC3)c(C)c3[nH]c4ncc(C)cc4c23)c1 [TAK-901] (drug 1000 nM)
66.5

Return viability inhibition at highest dose for the following compound: Cc1[nH]c2ccccc2c1CCNCc1ccc(/C=C/C(=O)NO)cc1 [Panobinostat] (drug 1000 nM)
85.3
